molecules and their reported Log PS (log κ′ on esterIAM.PS C10/C3)
Assay: IAM chromatography membrane affinity (κ′) on esterIAM.PS C10/C3 column
Conditions: 15% acetonitrile in 0.01M PBS buffer (pH 7.4) mobile phase
// no unit, no text: just the number

Here's what some known entries look like.
{"molecule": "Fc1ccc([C@@H]2CCNC[C@H]2COc2ccc3c(c2)OCO3)cc1 [Paroxetine]", "Log PS (log κ′ on esterIAM.PS C10/C3)": 3.37}
{"molecule": "Nc1nnc(-c2cccc(Cl)c2Cl)c(N)n1 [Lamotrigine]", "Log PS (log κ′ on esterIAM.PS C10/C3)": 0.96}
{"molecule": "CNC(=C[N+](=O)[O-])NCCSCc1ccc(CN(C)C)o1 [Ranitidine]", "Log PS (log κ′ on esterIAM.PS C10/C3)": 0.83}

Could you now look at the following molecule, please?
The recorded Log PS (log κ′ on esterIAM.PS C10/C3) for entry COc1ccc([C@@H]2Sc3ccccc3N(CCN(C)C)C(=O)[C@@H]2OC(C)=O)cc1 [Diltiazem] equals 2.54

---

LOG PE (log κ′ on esterIAM.PE C10/C3) reference
Test: IAM chromatography membrane affinity (κ′) on esterIAM.PE C10/C3 column
Conditions: 15% acetonitrile in 0.01M PBS buffer (pH 7.4) mobile phase
# respond with the number and nothing more

Reference set (3 entries):
{"compound string": "CNC(=C[N+](=O)[O-])NCCSCc1ccc(CN(C)C)o1", "LOG PE (log κ′ on esterIAM.PE C10/C3)": 0.15}
{"compound string": "Nc1nc2c(ncn2COCCO)c(=O)[nH]1", "LOG PE (log κ′ on esterIAM.PE C10/C3)": "−1.17"}
{"compound string": "Fc1ccc([C@@H]2CCNC[C@H]2COc2ccc3c(c2)OCO3)cc1", "LOG PE (log κ′ on esterIAM.PE C10/C3)": 2.33}

Shift focus to the following entry.
For this compound ( `COc1ccc([C@@H]2Sc3ccccc3N(CCN(C)C)C(=O)[C@@H]2OC(C)=O)cc1` ), measured LOG PE (log κ′ on esterIAM.PE C10/C3) is 1.87
